- Measured Target: IL-17A : IL-17RA binding (Homo sapiens, UniProt Q16552, K93Q)
- Construct: Name: IL-17A-Flag
- Sequence (Q16552 with tags, fused parts or gaps K93Q): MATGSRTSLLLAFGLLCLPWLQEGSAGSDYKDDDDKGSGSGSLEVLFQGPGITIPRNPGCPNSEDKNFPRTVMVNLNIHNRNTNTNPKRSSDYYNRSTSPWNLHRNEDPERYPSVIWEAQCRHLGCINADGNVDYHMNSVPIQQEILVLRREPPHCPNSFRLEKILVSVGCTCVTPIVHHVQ
- Protocol: IL-17A(FLAG-tagged):IL-17RA(His-tagged) binding disruption Eu-HTRF assay, Protocol 1
- Condition Notes: FLAG-IL-17A 2.5 nM at 2x final concentration; average if tested more than once
pIC50: −log10 of the molar value.
Assay Readout: pIC50

Example entries begin here.
[
  {
    "Molecule": "O=C(CC1CC(F)(F)C1)N[C@@H](c1ccc2nc([C@@H](NC(=O)c3nonc3C3CC3)[C@H]3CCCC(F)(F)C3)[nH]c2c1)C1CC1 [Example 170]",
    "pIC50": "> 7.30"
  },
  {
    "Molecule": "C[C@@H](NC(=O)CCC(F)(F)F)c1ccc2nc([C@@H](NC(=O)c3cnn(CC4CC4)c3)C3CCC(F)(F)CC3)[nH]c2c1 [Example 61]",
    "pIC50": "< 7.00"
  }
]

Let us examine a further case.
Determine from records and report pIC50 for C[C@@H](NC(=O)CC(C(F)(F)F)C(F)(F)F)c1ccc2[nH]c([C@@H](NC(=O)c3ccnn3C)C3CCC(F)(F)CC3)nc2c1 [Example 116]
7.00 to 7.30
